Test: Biodistribution in BxPC3-luc tumor-bearing mice
Assay type: in vivo, BALB/c nu/nu mice
Settings: female, BALB/c nu/nu, mouse, heart, iv, 74 kBq, total radioactivity; 10 min post-injection, i.v.; read-out: Biodistribution, Heart
Where a SMILES comes first, the peptide text is derived from it. The star is where a group is joined. DOTA = O=C(O)CN1CCN(CC(=O)O)CCN(CC(=O)*)CCN(CC(=O)O)CC1; AEEA = NCCOCCOCC(=O)O
assayMetric: tissue uptake at 10 min (%ID/g)
Number in %ID/g, nothing else.

Output tissue uptake at 10 min of CC[C@H](C)[C@H](NC(=O)COCCOCCNC(=O)CN1CCN(CC(=O)O)CCN(CC(=O)O)CCN(CC(=O)O)CC1)C(=O)N1CCC[C@H]1C(=O)N[C@@H](CC(C)C)C(=O)N1CCC[C@H]1C(=O)N1CCC[C@H]1C(=O)N1CCC[C@H]1C(=O)N[C@@H](CCCNC(=N)N)C(=O)N[C@@H](CCCNC(=N)N)C(=O)N1CCC[C@H]1C(=O)N[C@@H](Cc1ccccc1)C(=O)N[C@@H](Cc1ccccc1)C(=O)N[C@@H](CCCCN)C(=O)O [[^67Ga]27, [^67Ga]Ga-DOTA-EG2-IPLPPPRRPFFK, metal not drawn] ({DOTA-AEEA}-IPLPPPRRPFFK-OH)
1.47

###

Assay: Biodistribution in BxPC3-luc tumor-bearing mice
Format: in vivo, BALB/c nu/nu mice
Details: female, BALB/c nu/nu, bone, iv, total radioactivity; 1 h, blocking: co-injection of IPLPPPRRPFFK 1 mg/mouse; read-out: Biodistribution, Bone
Where a SMILES comes first, the peptide text is derived from it. The star is where a group is joined. DOTA = O=C(O)CN1CCN(CC(=O)O)CCN(CC(=O)*)CCN(CC(=O)O)CC1; AEEA = NCCOCCOCC(=O)O
assayMetric: tissue uptake at 1 h (%ID/g)
Number in %ID/g, nothing else.

Output tissue uptake at 1 h of CC[C@H](C)[C@H](NC(=O)COCCOCCNC(=O)CN1CCN(CC(=O)O)CCN(CC(=O)O)CCN(CC(=O)O)CC1)C(=O)N1CCC[C@H]1C(=O)N[C@@H](CC(C)C)C(=O)N1CCC[C@H]1C(=O)N1CCC[C@H]1C(=O)N1CCC[C@H]1C(=O)N[C@@H](CCCNC(=N)N)C(=O)N[C@@H](CCCNC(=N)N)C(=O)N1CCC[C@H]1C(=O)N[C@@H](Cc1ccccc1)C(=O)N[C@@H](Cc1ccccc1)C(=O)N[C@@H](CCCCN)C(=O)O [[^67Ga]27, [^67Ga]Ga-DOTA-EG2-IPLPPPRRPFFK, metal not drawn] ({DOTA-AEEA}-IPLPPPRRPFFK-OH)
0.21

###

Experiment: Biodistribution in BxPC3-luc tumor-bearing mice
Type: in vivo, BALB/c nu/nu mice
Settings: female, BALB/c nu/nu, mouse, lung, iv, 74 kBq, total radioactivity; 1 h post-injection, i.v.; read-out: Biodistribution, Lung
Where a SMILES comes first, the peptide text is derived from it. The star is where a group is joined. DOTA = O=C(O)CN1CCN(CC(=O)O)CCN(CC(=O)*)CCN(CC(=O)O)CC1; AEEA = NCCOCCOCC(=O)O
assayMetric: tissue uptake at 1 h (%ID/g)
Number in %ID/g, nothing else.

Output tissue uptake at 1 h of CC[C@H](C)[C@H](NC(=O)COCCOCCNC(=O)CN1CCN(CC(=O)O)CCN(CC(=O)O)CCN(CC(=O)O)CC1)C(=O)N1CCC[C@H]1C(=O)N[C@@H](CC(C)C)C(=O)N1CCC[C@H]1C(=O)N1CCC[C@H]1C(=O)N1CCC[C@H]1C(=O)N[C@@H](CCCNC(=N)N)C(=O)N[C@@H](CCCNC(=N)N)C(=O)N1CCC[C@H]1C(=O)N[C@@H](Cc1ccccc1)C(=O)N[C@@H](Cc1ccccc1)C(=O)N[C@@H](CCCCN)C(=O)O [[^67Ga]27, [^67Ga]Ga-DOTA-EG2-IPLPPPRRPFFK, metal not drawn] ({DOTA-AEEA}-IPLPPPRRPFFK-OH)
0.46
